Data provenance: PubChem BioAssay AID1996

Conditions: buffer; pH 7.4; 200.0 µM
READOUT_KIND: solubility kinetic (µg/mL)
Answer with a number only, understood to be in µg/mL.

Given the molecule O=C(Oc1ccc(OC(=O)N2CCCCC2)cc1)N1CCCCC1 , what is its reported solubility kinetic?
1.1

Any idea what solubility kinetic was measured for O=C(NCCCCO)c1ccc2c3c(cccc13)CC2 ?
39.2

Which value of solubility kinetic has been reported for COCc1nc2oc3ccc(F)cc3c(=O)c2cc1C(=O)OC in the records?
10.4

State the recorded solubility kinetic for this entry: O=C(Nc1ccccc1O)c1ccc([N+](=O)[O-])cc1
24.1

May I ask what solubility kinetic has been recorded for CC(C)CNS(=O)(=O)c1cc2c3c(c1)CC(=O)N3CCC2 ?
45.8

So what's the measured solubility kinetic for this one? Cc1nc2ccccc2n1CCc1ccccc1
30.1

====

Conditions: buffer; pH 7.4; 200.0 µM
READOUT_KIND: log10 of solubility kinetic (log10 of the value in µg/mL)
Please keep in mind that the values are log10 of solubility kinetic expressed in µg/mL.

Quick one: log10 of solubility kinetic for CN(CC(=O)Nc1cccc(C(F)(F)F)c1)C1=NS(=O)(=O)c2ccccc21 ?
0.57

Reported log10 of solubility kinetic, molecule COc1ccccc1Nc1ncnc2c1c(C)c(C)n2CCO : ____
1.19

Given the molecule CCc1cccc(C)c1NC(=S)NCC1CCN(c2ccc(OC)cc2)C1 (centres undefined) , what is its reported log10 of solubility kinetic?
0.43

Query (molecule): O=C(NCc1ccco1)c1cc([N+](=O)[O-])ccc1Cl ; field requested: log10 of solubility kinetic
1.45

Given O=C1NC2=C(C(=O)CCC2)C(c2ccccc2Cl)N1 (centres undefined) , state its recorded log10 of solubility kinetic.
1.59

I am curious: what log10 of solubility kinetic value has been reported for O=C(c1c(F)cccc1F)N1CCN=C1SCc1ccccc1 ?
1.27

GET /values?readout=log10 of solubility kinetic&item= O=c1[nH]c(/C=C/c2ccc3c(c2)OCO3)c([N+](=O)[O-])c(=O)[nH]1
1.29

// log10 of solubility kinetic lookup, key: CCOc1ccc(C(=O)Cn2cnc3ccccc3c2=O)cc1
0.93

For the molecule Cc1ccc(-c2nc3ccc(Cl)cc3c(=O)n2O)cc1 , what log10 of solubility kinetic is on record?
1.63

What measured log10 of solubility kinetic goes with CCOc1ccc(OCCn2c(=S)[nH]c3c(N)ncnc32)cc1 ?
1.30

Which log10 of solubility kinetic value is on record for O=C(Nc1cccc(C(=O)O)c1)/C(=C\c1ccco1)NC(=O)c1ccccc1 ?
1.71

====

Conditions: buffer; pH 7.4; 200.0 µM
solubility kinetic of 20 µg/mL or higher: fulfilled. Under 20 µg/mL: not fulfilled.

Is solubility kinetic at least 20 µg/mL? Consider S=C(Nc1cccc(Cl)c1Cl)N1CCCC1
not fulfilled

Is solubility kinetic at least 20 µg/mL? Consider Cc1ccc2[nH]cc(CCNC(=O)/C=C/c3ccco3)c2c1
fulfilled

Quick check: does Cc1cc(C)cc(NC(=O)CC2Oc3ccc(C)cc3NC2=O)c1 (stereo unspecified) have solubility kinetic greater than or equal to 20 µg/mL?
not fulfilled

Entry CN(c1ccccc1)S(=O)(=O)c1cccc(NC(=O)CSc2nccc(=O)[nH]2)c1 : is its solubility kinetic no less than 20 µg/mL?
fulfilled

Could you tell me if the measured solubility kinetic of COc1ccc(N=Cc2c(O)n(C)c(=O)[nH]c2=O)cc1 reaches 20 µg/mL or more?
not fulfilled

Hello, I need to know if COc1ccccc1N1C(=O)c2cccnc2C1=O has measured solubility kinetic not below 20 µg/mL. Thanks!
fulfilled

Quick check, solubility kinetic >= 20 µg/mL? O=C(CCN1C(=O)S/C(=C\c2ccccc2)C1=O)N1CCCCC1
fulfilled

Could you tell me if the measured solubility kinetic of CCOc1ccc(-c2ncncc2-c2ccc(OC)c(OC)c2)c(O)c1 reaches 20 µg/mL or more?
not fulfilled

State whether the measured solubility kinetic reaches 20 µg/mL, counting equality as reaching it, for O=[N+]([O-])c1cccc(-c2noc(COc3ccccc3)n2)c1
not fulfilled

Check the entry COc1ccc(N2C(=O)C(F)(F)C2c2ccc(C)cc2)cc1OC (stereo unspecified) : does solubility kinetic equal or exceed 20 µg/mL?
not fulfilled

Determine whether measured solubility kinetic meets or exceeds 20 µg/mL for O=C(CCc1nc2ccccc2s1)N1CCN(c2ccccc2)CC1
fulfilled
